Molecular target: T1, Spt6-tSH2 R1281A/S1283A (C. glabrata, UniProt Q6FLB1 1250-1444, R1281A | S1283A)
T1 sequence (looked up): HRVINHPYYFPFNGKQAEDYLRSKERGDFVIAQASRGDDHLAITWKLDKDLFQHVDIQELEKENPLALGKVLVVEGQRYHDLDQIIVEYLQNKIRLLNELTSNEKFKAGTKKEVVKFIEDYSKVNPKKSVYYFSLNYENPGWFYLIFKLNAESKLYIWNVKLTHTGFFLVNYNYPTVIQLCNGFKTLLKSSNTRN
Assay: fluorescence polarisation
Square brackets hold non-standard residues; d marks the D form. Ends that are not written are not given here. pY = N[C@@H](Cc1ccc(OP(=O)(O)O)cc1)C(=O)O
ASSAY METRIC: Kd (µM)
# number only, unit µM dropped from output

**Q:** Provide one value: measured Kd of {5,6‑FAM}-PS[pY]SPTSPS[pY]SPTSPS [(pY1-CTD)2, FAM-labelled tyrosine-phosphorylated CTD diheptad]
**A:** 35.5
